Data origin: patent US20110319416A1

target: NR1/NR2A (Rattus norvegicus, UniProt P35439+Q00959); assay: Two electrode voltage clamp, Xenopus oocytes expressing recombinant NR1/NR2A; format: cell-based; conditions: at 100 μM; read-out: 2A percent effect at the maximum tested concentration
Sequence (Q00959 23-1464, other chains not shown): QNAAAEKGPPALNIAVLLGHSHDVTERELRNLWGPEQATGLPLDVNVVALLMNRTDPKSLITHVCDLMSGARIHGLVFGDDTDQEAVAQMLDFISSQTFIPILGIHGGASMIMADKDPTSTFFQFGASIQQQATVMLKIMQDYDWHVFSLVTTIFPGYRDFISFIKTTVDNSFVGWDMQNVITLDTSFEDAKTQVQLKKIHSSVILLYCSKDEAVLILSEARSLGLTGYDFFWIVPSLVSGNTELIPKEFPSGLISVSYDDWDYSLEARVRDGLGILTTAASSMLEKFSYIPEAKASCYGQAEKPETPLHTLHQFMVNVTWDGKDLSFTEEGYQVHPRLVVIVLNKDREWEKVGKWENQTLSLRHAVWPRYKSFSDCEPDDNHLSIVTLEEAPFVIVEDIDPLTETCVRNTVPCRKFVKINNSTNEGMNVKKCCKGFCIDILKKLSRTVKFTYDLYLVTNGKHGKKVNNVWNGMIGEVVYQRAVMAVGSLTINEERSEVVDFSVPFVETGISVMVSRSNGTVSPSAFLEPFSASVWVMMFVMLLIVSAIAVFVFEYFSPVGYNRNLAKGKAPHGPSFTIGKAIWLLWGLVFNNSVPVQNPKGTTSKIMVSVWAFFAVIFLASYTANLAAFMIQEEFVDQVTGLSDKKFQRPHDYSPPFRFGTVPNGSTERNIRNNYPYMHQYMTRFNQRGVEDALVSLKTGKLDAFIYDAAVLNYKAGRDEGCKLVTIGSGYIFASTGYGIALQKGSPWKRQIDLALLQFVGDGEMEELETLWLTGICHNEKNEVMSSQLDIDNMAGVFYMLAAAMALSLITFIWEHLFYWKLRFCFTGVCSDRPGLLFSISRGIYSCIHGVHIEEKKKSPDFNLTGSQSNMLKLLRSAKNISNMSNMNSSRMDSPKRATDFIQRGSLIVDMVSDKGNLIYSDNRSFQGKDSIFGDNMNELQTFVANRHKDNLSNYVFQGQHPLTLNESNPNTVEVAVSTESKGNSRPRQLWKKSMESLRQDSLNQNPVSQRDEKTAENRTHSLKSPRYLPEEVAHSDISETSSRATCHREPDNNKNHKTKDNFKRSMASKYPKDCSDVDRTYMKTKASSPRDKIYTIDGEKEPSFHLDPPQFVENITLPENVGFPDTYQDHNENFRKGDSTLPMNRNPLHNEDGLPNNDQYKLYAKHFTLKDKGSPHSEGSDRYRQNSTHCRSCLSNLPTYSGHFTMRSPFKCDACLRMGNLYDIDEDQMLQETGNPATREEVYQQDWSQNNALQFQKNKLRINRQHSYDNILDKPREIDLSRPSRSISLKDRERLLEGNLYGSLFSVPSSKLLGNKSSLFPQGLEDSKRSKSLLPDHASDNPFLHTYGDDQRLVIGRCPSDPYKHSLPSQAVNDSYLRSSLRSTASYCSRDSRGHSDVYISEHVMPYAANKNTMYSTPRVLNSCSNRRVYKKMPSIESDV
QUANTITY_NAME: remaining activity at 100 µM (%)
# number only, unit % dropped from output

Use these answered entries as a reference point.
{"ITEM_SMILES": "CCN(CC)C(=S)Oc1ccc(C(=O)Nc2cccc3cc[nH]c23)cc1", "MEASURED_RESULT": 94}
{"ITEM_SMILES": "O=C(Nc1cccc2ccccc12)c1ccc(OC(=O)N2CCCCC2)cc1", "MEASURED_RESULT": 135}
{"ITEM_SMILES": "O=C(Nc1cccc2ccccc12)c1ccc(OC(=O)N2CCCC2)cc1", "MEASURED_RESULT": 87}
{"ITEM_SMILES": "CC(C)N(C(=O)Oc1ccc(C(=O)Oc2cccc3c(N)cccc23)cc1)C(C)C", "MEASURED_RESULT": 104}

Moving on to another compound below.
# input State the measured remaining activity at 100 µM (NR1/NR2A (Rattus norvegicus, UniProt P35439+Q00959)) of CCN(CC)C(=O)Oc1cccc(C(=O)Nc2cccc3ccccc23)c1
# output 84

---

Target: NR1/NR2D (Rattus norvegicus, UniProt Q62645)
Experiment: Two electrode voltage clamp, Xenopus oocytes expressing recombinant NR1/NR2D
Conditions: submicromolar; method not stated; read-out: EC50 for activation of NR2D-containing receptors
Method: Quality of synthesized cRNA was assessed by gel electrophoresis, and quantity was estimated by spectroscopy and gel electrophoresis. […] Two electrode voltage-clamp recordings were made 2-7 days post-injection as previously described. […] Oocytes were recorded under voltage clamp at −40 mV. […] The baseline leak current at −40 mV was measured before and after recording, and the full recording linearly corrected for any change in leak current. […]
QUANTITY_NAME: EC50

# input Dear colleague, please send me the reported EC50 for N[C@@H](CCC(=O)O)C(=O)O [glutamate, reference compound] when you can.
# output < 500 nM

---

target: NR1/NR2D (Rattus norvegicus, UniProt P35439+Q62645); assay: Two electrode voltage clamp, Xenopus oocytes expressing recombinant NR1/NR2D; assay type: cell-based; conditions: logistic fit, minimum forced to 0; read-out: 2D IC50
Sequence (Q62645 28-1323, other chains not shown): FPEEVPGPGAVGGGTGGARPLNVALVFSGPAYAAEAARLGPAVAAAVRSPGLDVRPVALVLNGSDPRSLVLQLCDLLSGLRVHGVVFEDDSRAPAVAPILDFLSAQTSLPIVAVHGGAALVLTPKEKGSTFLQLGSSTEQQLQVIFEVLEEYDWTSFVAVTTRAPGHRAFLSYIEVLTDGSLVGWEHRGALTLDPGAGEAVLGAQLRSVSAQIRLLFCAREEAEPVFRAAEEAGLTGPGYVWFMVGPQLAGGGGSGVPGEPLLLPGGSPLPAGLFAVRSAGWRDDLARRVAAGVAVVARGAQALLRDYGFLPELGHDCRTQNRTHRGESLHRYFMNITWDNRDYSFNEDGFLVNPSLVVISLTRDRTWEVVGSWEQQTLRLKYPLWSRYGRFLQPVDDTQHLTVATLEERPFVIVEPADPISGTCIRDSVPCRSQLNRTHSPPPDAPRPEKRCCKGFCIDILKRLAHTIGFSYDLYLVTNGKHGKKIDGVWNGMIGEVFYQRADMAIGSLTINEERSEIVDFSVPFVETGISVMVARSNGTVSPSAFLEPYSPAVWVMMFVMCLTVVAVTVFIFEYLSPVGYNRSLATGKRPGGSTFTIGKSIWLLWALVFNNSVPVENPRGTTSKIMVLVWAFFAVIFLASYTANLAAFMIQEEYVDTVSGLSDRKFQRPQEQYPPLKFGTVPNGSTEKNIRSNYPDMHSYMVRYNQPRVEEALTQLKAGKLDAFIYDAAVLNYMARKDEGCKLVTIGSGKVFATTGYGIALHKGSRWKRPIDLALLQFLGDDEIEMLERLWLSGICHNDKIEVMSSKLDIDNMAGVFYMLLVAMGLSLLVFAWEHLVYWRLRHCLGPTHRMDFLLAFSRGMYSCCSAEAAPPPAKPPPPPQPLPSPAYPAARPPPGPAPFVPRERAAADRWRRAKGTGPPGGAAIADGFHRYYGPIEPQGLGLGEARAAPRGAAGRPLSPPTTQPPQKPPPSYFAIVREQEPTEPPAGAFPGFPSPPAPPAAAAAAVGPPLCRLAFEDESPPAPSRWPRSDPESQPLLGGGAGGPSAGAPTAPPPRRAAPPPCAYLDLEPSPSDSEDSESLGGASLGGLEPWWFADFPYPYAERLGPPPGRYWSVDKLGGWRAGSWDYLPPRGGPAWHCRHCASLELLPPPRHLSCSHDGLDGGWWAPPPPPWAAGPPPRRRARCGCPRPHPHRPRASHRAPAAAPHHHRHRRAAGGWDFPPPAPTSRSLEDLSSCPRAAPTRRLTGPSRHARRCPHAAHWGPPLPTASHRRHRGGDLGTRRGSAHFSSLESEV
QUANTITY_NAME: IC50 (µM)
# number only, unit µM dropped from output

Use these answered entries as a reference point.
{"COMPOUND": "O=C(O)CCC(=O)N1N=C(c2c(-c3ccccc3)c3cc(Cl)ccc3[nH]c2=O)CC1c1cccc(Br)c1 (stereo not shown)", "STUDY_SYSTEM": "NR1/NR2D (Rattus norvegicus, UniProt P35439+Q62645)", "MEASUREMENT_UNIT": "µM", "IC50": 4}
{"COMPOUND": "O=C(Nc1cccc2ccccc12)c1ccc2oc(=O)[nH]c2c1", "STUDY_SYSTEM": "NR1/NR2D (Rattus norvegicus, UniProt P35439+Q62645)", "MEASUREMENT_UNIT": "µM", "IC50": 366}
{"COMPOUND": "O=C(O)CCC(=O)N1N=C(c2c(-c3ccccc3)c3cc(Cl)ccc3[nH]c2=O)CC1c1ccc(Br)cc1 (stereo not shown)", "STUDY_SYSTEM": "NR1/NR2D (Rattus norvegicus, UniProt P35439+Q62645)", "MEASUREMENT_UNIT": "µM", "IC50": 2}

Moving on to another compound below.
# input Dear colleague, please send me the reported IC50 for CCN(CC)C(=S)Oc1ccc(C(=O)Nc2cccc3cc[nH]c23)cc1 when you can.
# output 4

---

molecular target: NR1/NR2D (Rattus norvegicus, UniProt P35439+Q62645); assay: Two electrode voltage clamp, Xenopus oocytes expressing recombinant NR1/NR2D; format: cell-based; details: at 100 μM; read-out: 2D percent effect at the maximum tested concentration
QUANTITY_NAME: remaining activity at 100 µM (%)
# number only, unit % dropped from output

Use these answered entries as a reference point.
{"ITEM_SMILES": "O=C(O)c1ccc(C(=O)Nc2cccc3cc[nH]c23)cc1", "MEASURED_RESULT": 89}
{"ITEM_SMILES": "O=C(Nc1cccc2ccccc12)c1ccc(Oc2nc3ccccc3s2)cc1", "MEASURED_RESULT": 91}
{"ITEM_SMILES": "O=C(Nc1cccc2ccccc12)c1ccc(OC(=O)N2CCCCC2)cc1", "MEASURED_RESULT": 84}
{"ITEM_SMILES": "CCCCN(CCCC)C(=O)Oc1ccc(C(=O)Nc2cccc3ccccc23)cc1", "MEASURED_RESULT": 87}
{"ITEM_SMILES": "CCN(CC)C(=O)c1ccc(C(=O)Nc2cccc3cc[nH]c23)cc1", "MEASURED_RESULT": 82}

Moving on to another molecule below.
# input Dear colleague, please send me the reported remaining activity at 100 µM for O=C(Nc1cccc2ccccc12)c1ccc(Oc2nc(-c3ccccc3)cs2)cc1 when you can.
# output 88

---

target: NR1/NR2C (Rattus norvegicus, UniProt P35439+Q00961); assay: Two electrode voltage clamp, Xenopus oocytes expressing recombinant NR1/NR2C; type: cell-based
Sequence (Q00961 20-1237, other chains not shown): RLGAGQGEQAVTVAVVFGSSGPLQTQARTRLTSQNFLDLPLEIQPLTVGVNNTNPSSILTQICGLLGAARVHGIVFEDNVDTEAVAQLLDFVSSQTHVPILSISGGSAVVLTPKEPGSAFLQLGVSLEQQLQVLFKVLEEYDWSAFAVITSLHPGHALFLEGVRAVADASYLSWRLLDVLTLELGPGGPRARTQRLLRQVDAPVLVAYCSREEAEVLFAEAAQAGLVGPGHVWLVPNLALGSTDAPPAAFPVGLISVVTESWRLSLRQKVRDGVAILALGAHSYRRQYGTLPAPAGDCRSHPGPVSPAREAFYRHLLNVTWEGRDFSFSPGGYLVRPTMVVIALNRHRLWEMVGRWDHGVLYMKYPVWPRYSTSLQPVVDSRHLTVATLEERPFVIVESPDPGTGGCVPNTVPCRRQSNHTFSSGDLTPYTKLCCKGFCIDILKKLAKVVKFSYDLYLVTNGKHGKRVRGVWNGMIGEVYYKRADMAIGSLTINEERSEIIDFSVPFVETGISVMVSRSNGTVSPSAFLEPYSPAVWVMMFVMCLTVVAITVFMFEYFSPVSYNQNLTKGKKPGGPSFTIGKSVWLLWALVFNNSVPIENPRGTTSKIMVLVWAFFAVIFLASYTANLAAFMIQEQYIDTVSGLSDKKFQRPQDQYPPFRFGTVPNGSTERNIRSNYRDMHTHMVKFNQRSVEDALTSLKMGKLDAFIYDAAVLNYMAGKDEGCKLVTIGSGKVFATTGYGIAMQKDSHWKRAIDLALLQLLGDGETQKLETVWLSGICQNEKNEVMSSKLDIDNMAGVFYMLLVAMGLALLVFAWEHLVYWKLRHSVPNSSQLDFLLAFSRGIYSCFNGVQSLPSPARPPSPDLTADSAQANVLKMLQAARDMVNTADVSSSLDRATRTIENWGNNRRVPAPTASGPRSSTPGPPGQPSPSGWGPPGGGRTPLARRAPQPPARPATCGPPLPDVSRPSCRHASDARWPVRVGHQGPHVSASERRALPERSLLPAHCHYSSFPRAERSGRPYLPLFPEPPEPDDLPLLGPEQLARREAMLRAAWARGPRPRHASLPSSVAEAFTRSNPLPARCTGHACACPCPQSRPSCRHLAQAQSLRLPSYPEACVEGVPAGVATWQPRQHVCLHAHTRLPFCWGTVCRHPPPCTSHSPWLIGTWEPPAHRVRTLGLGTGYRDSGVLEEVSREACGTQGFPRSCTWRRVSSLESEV
Quick list: pIC50 per entry.
The read-out pIC50 is expressed as -log10 of concentration in moles per litre.

Use these answered entries as a reference point.
{"COMPOUND": "CCN(CC)C(=O)Oc1ccc(C(=O)Nc2cccc3[nH]ccc23)cc1 [1063-26]", "MEASURED_RESULT": 5.10}
{"COMPOUND": "CN(C)C(=O)Oc1ccc(C(=O)Nc2cccc3ccccc23)cc1 [1063-3]", "MEASURED_RESULT": 3.21}

# input Dear colleague, please send me the reported pIC50 for CCN(CC)C(=O)Oc1ccc(C(=O)Nc2cccc3c2CCCC3)cc1 [1063-18] when you can.
# output 4.64

---

molecular target: NR1/NR2C (Rattus norvegicus); assay: Two electrode voltage clamp, Xenopus oocytes expressing recombinant NR1/NR2C; type: cell-based; details: logistic fit, minimum forced to 0; read-out: 2C IC50
Quick list: IC50 per entry.
# number only, unit µM dropped from output

{"MOLECULE": "O=C(O)CCC(=O)N1N=C(c2c(-c3ccccc3)c3cc(Cl)ccc3[nH]c2=O)CC1c1ccc(Br)cc1 (centres unmarked) [compound 1179]", "MEASURED_RESULT": 4}

Moving on to another molecule below.
# input State the measured IC50 (NR1/NR2C (Rattus norvegicus)) of Cc1ccc2[nH]c(=O)c(C3=NN(C(=O)CCC(=O)O)C(c4ccc(Br)cc4)C3)c(-c3ccccc3)c2c1 (centres unmarked) [compound 1105]
# output 7

---

Quick list: IC50 per entry.
target: NR1/NR2D (Rattus norvegicus, UniProt P35439+Q62645); assay: Two electrode voltage clamp, Xenopus oocytes expressing recombinant NR1/NR2D; assay type: cell-based; conditions: logistic fit, minimum forced to 0; read-out: 2D IC50
# number only, unit µM dropped from output

Use these answered entries as a reference point.
{"COMPOUND": "O=C(O)CCC(=O)N1N=C(c2c(-c3ccccc3)c3cc(Br)ccc3[nH]c2=O)CC1c1ccccc1F (stereo not drawn)", "STUDY_SYSTEM": "NR1/NR2D (Rattus norvegicus, UniProt P35439+Q62645)", "QUANTITY_NAME": "IC50", "MEASURED_RESULT": 21}
{"COMPOUND": "CCN(CC)C(=S)Oc1ccc(C(=O)Nc2ccc(F)cc2)cc1", "STUDY_SYSTEM": "NR1/NR2D (Rattus norvegicus, UniProt P35439+Q62645)", "QUANTITY_NAME": "IC50", "MEASURED_RESULT": 55}
{"COMPOUND": "C=CCN(CC=C)C(=S)Oc1ccc(C(=O)Nc2cccc3ccccc23)cc1", "STUDY_SYSTEM": "NR1/NR2D (Rattus norvegicus, UniProt P35439+Q62645)", "QUANTITY_NAME": "IC50", "MEASURED_RESULT": 279}
{"COMPOUND": "O=C(O)CCC(=O)N1N=C(c2c(-c3ccccc3)c3cc(Cl)ccc3[nH]c2=O)CC1c1ccccc1 (stereo not drawn)", "STUDY_SYSTEM": "NR1/NR2D (Rattus norvegicus, UniProt P35439+Q62645)", "QUANTITY_NAME": "IC50", "MEASURED_RESULT": 32}
{"COMPOUND": "O=C(Nc1cccc2ccccc12)c1ccc(OC(=O)N2CCCC2)cc1", "STUDY_SYSTEM": "NR1/NR2D (Rattus norvegicus, UniProt P35439+Q62645)", "QUANTITY_NAME": "IC50", "MEASURED_RESULT": 257}

Moving on to another compound below.
# input Dear colleague, please send me the reported IC50 for O=C(O)CCC(=O)N1N=C(c2c(-c3ccccc3)c3cc(Br)ccc3[nH]c2=O)CC1c1ccc(Br)cc1 (stereo not drawn) when you can.
# output 3
